Molecular target: Estrogen receptor (Homo sapiens, UniProt P03372)
Sequence (P03372 whole entry): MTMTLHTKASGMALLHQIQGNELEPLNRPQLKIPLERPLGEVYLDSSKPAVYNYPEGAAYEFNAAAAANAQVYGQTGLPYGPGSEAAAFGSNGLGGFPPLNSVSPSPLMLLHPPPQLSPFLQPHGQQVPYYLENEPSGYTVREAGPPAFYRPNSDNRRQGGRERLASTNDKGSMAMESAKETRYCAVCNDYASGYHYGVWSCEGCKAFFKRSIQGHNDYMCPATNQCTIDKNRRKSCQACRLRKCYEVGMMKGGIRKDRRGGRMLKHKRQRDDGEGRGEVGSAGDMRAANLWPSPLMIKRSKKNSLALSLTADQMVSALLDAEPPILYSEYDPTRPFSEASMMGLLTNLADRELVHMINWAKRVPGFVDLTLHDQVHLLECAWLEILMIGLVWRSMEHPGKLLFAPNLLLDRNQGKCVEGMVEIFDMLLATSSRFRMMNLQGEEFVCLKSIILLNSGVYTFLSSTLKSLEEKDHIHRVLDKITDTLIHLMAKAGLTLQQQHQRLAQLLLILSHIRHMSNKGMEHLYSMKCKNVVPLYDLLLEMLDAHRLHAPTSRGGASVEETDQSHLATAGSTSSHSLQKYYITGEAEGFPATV
Test: Displacement of fluorescent ligand from human recombinant GST-tagged ER-alpha ligand binding domain (307 to 554 residues) incubated for 15 mins by TR-FRET based competitive assay
pIC50: −log10 of the molar value.

{"molecule": "C[C@@H]1Cc2c([nH]c3ccccc23)[C@@H](c2cnc(N3CCC4(CC3)CC(CN3CC5(CCN(c6ccc7c(c6)CN(C6CCC(=O)NC6=O)C7=O)CC5)C3)C4)nc2)N1CC(C)(C)F (stereo partly specified)", "pIC50": 8.72}

----------
Target: Protein cereblon/Estrogen receptor (Homo sapiens, UniProt P03372+Q96SW2)
Test: Protac activity at CRBN/ERalpha in human MCF7 cells assessed as induction of ERalpha protein degradation incubated for 8 to 22 hrs by immunofluorescence assay
pIC50: −log10 of the molar value.
parameter: pIC50

{"compound": "C[C@@H]1Cc2c([nH]c3ccccc23)[C@@H](c2cnc(OC3CCC4(CC3)CCN(CC3CCN(c5ccc6c(c5)CN(C5CCC(=O)NC5=O)C6=O)CC3)CC4)nc2)N1CC(C)(C)F (stereo not given in full)", "result": 9.40}
{"compound": "C[C@@H]1Cc2c([nH]c3ccccc23)[C@@H](c2c(F)cc(OCCCCCN3CCN(c4ccc5c(c4)CN(C4CCC(=O)NC4=O)C5=O)CC3)cc2F)N1CC(C)(C)F (stereo not given in full)", "result": 9.22}
{"compound": "COc1cc(N2CCN(CCC3CCN(c4ncc([C@@H]5c6[nH]c7ccccc7c6C[C@@H](C)N5CC(C)(C)F)cn4)CC3)CC2)cc2c1C(=O)N(C1CCC(=O)NC1=O)C2 (stereo not given in full)", "result": 9.40}
{"compound": "C[C@@H]1Cc2c([nH]c3ccccc23)[C@@H](c2cnc(N3CCC(CCN4CCOC5(CC4)CCN(c4ccc6c(c4)CN(C4CCC(=O)NC4=O)C6=O)CC5)CC3)nc2)N1CC(C)(C)F (stereo not given in full)", "result": 9.30}
{"compound": "COc1cc(N2CCN(CC3CCN(c4ncc([C@@H]5c6[nH]c7ccccc7c6C[C@@H](C)N5CC(C)(C)F)cn4)CC3)CC2)cc2c1C(=O)N(C1CCC(=O)NC1=O)C2 (stereo not given in full)", "result": 9.15}

----------
Target: Protein cereblon/Estrogen receptor (Homo sapiens, UniProt P03372+Q96SW2)
Experiment: Protac activity at CRBN/ERalpha in human MCF7 cells assessed as induction of ERalpha protein degradation incubated for 8 to 22 hrs by immunofluorescence assay
pIC50: −log10 of the molar value.

{"molecule": "C[C@@H]1Cc2c([nH]c3ccccc23)[C@@H](c2cnc(N3CCC(CN4CCOC5(CC4)CCN(c4ccc6c(c4)CN(C4CCC(=O)NC4=O)C6=O)CC5)CC3)nc2)N1CC(C)(C)F (stereo partly drawn)", "pIC50": 9.40}
{"molecule": "C[C@@H]1Cc2c([nH]c3ccccc23)[C@@H](c2cnc(N3CCC4(CCN(CCC5CCN(c6ccc7c(c6)CN(C6CCC(=O)NC6=O)C7=O)CC5)CC4)CC3)nc2)N1CC(C)(C)F (stereo partly drawn)", "pIC50": 9.10}
{"molecule": "C[C@@H]1Cc2c([nH]c3ccccc23)[C@@H](c2cnc(N3CCC(CCN4CCC5(CC4)CCN(c4ccc6c(c4)CN(C4CCC(=O)NC4=O)C6=O)CC5)CC3)nc2)N1CC(C)(C)F (stereo partly drawn)", "pIC50": 9.40}

----------
Target: Protein cereblon/Estrogen receptor (Homo sapiens, UniProt P03372+Q96SW2)
Assay: Protac activity at CRBN/ERalpha in human MCF7 cells assessed as induction of ERalpha protein degradation incubated for 8 to 22 hrs by immunofluorescence assay
Below is a list of entries, each paired with its recorded IC50 value.

{"molecule": "C[C@@H]1Cc2c([nH]c3ccccc23)[C@@H](c2cnc(N3CCC(OCCN4CCN(c5ccc6c(c5)CN(C5CCC(=O)NC5=O)C6=O)CC4)CC3)nc2)N1CC(C)(C)F (some centres undefined)", "targetSystem": "Protein cereblon/Estrogen receptor (Homo sapiens, UniProt P03372+Q96SW2)", "uom": "nM", "IC50": 0.5}
{"molecule": "C[C@@H]1Cc2c([nH]c3ccccc23)[C@@H](c2cnc(N3CCC(CN4CCN(CC5CCN(c6ccc7c(c6)CN(C6CCC(=O)NC6=O)C7=O)CC5)CC4)CC3)nc2)N1CC(C)(C)F (some centres undefined)", "targetSystem": "Protein cereblon/Estrogen receptor (Homo sapiens, UniProt P03372+Q96SW2)", "uom": "nM", "IC50": 0.6}
{"molecule": "C[C@@H]1Cc2c([nH]c3ccccc23)[C@@H](c2cnc(N3CCC4(CC3)CC(CN3CC5(CCN(c6ccc7c(c6)CN(C6CCC(=O)NC6=O)C7=O)CC5)C3)C4)nc2)N1CC(C)(C)F (some centres undefined)", "targetSystem": "Protein cereblon/Estrogen receptor (Homo sapiens, UniProt P03372+Q96SW2)", "uom": "nM", "IC50": 0.4}
{"molecule": "C[C@@H]1Cc2c([nH]c3ccccc23)[C@@H](c2cnc(N3CCC(CCN4CCN(c5ccc6c(c5)CN(C5CCC(=O)NC5=O)C6=O)CC4)CC3)nc2)N1CC(C)(C)F (some centres undefined)", "targetSystem": "Protein cereblon/Estrogen receptor (Homo sapiens, UniProt P03372+Q96SW2)", "uom": "nM", "IC50": 0.5}
